biological target: human muscarinic M2 receptor (Homo sapiens, UniProt P08172); test: Alphascreen Surefire phospho-ERK1/2 functional assay, M2; details: CHO cells stably expressing human M2; Emax relative to ACh
Measurement Name: M2 % Emax cf. ACh

                                   compound   measurement_name  recorded_measurement
0  CCC1NC(=O)CC12CCN(C1CC3(CCN(C(=O)OC)C3)C1)CC2 (single isomer, unassigned) [3-4 Isomer 3]  M2 % Emax cf. ACh                 (8) %

----------
Readings of EC50 for the listed compounds
target: human muscarinic M1 receptor (Homo sapiens); construct: expressed in transfected cells; experiment: Alphascreen Surefire phospho-ERK1/2 functional assay, M1; type: cell-based; details: CHO cells stably expressing human M1; phospho-ERK1/2; read-out: pEC50 M1 (converted)
Sequence (P11229 whole entry): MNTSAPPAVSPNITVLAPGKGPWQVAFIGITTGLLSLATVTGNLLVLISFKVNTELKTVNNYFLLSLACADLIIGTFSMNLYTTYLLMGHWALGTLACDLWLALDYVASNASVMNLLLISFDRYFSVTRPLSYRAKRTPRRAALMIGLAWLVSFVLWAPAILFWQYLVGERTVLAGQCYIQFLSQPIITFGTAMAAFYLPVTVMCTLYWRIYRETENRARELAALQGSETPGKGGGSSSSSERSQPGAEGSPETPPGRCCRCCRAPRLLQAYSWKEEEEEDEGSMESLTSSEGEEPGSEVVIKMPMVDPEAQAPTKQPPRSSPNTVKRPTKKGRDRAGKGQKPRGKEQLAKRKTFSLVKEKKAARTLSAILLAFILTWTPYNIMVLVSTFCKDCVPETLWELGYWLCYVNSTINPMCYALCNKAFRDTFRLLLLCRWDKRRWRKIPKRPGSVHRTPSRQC
Measurement Name: EC50 (µM)

                                   compound  comparison_sign  recorded_measurement
0  CCOC(=O)N1CCC2(CC(N3CCC4(CC3)OC(=O)N(C)C4CC)C2)C1 (single isomer, unassigned) [4-20 Isomer 1]                =                     2
1  CCOC(=O)N1CCC2(CC(N3CCC4(CC3)OC(=O)N(C3CC3)C4CC)C2)C1 (mixture of isomers) [4-47 mixture of diastereomers]                =                     1
2  CCOC(=O)N1CCC2(CC(N3CCC4(CC3)OC(=O)NC4CC)C2)C1 (single isomer, unassigned) [4-12 Isomer 2]                >                    20
3  CCOC(=O)N1CCC2(CC(N3CCC4(CC3)CNC(=O)O4)C2)C1 (single isomer, unassigned) [4-3 Isomer 1]                =                 0.251
4  CCOC(=O)N1CCC2(CC(N3CCC4(CC3)OC(=O)NC4CC)C2)C1 (single isomer, unassigned) [4-12 Isomer 3]                =                0.0251
5  CCN1C(=O)OC2(CCN(C3CC4(CCN(C(=O)OC)C4)C3)CC2)C1(C)C (single isomer, unassigned) [4-34 Isomer 2]                =                     2

----------
Target: human muscarinic M2 receptor (Homo sapiens, UniProt P08172)
Sequence (P08172 1-466): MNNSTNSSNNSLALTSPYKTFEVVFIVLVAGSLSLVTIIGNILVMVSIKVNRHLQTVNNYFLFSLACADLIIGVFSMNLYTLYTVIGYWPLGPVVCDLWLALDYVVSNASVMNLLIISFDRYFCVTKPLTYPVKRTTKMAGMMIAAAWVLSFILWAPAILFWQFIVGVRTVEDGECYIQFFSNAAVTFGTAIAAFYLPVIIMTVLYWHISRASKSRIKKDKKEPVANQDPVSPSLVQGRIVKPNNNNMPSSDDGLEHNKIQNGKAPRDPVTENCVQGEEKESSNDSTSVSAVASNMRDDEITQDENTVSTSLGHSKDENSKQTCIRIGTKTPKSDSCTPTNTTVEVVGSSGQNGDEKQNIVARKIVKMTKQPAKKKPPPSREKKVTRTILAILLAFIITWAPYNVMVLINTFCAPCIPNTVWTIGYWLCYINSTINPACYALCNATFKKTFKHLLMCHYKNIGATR
Assay: Alphascreen Surefire phospho-ERK1/2 functional assay, M2
Details: CHO, read-out: M2 % Emax cf. ACh, CHO cells stably expressing human M2; Emax relative to ACh
Measurement Name: Emax (%)

>>> df
                                    compound  recorded_measurement
 0  CCOC(=O)N1CC2(CC(N3CCC4(CC3)OC(=O)N(CC)C4(C)C)C2)C1                    14
 1  [2H]C([2H])([2H])OC(=O)N1CCC2(CC(N3CCC4(CC3)CNC(=O)O4)C2)C1 (single isomer, unassigned) [4-2 Isomer 2]                    13
 2  CCCN1C(=O)OC2(CCN(C3CC4(CCN(C(=O)OC)C4)C3)CC2)C1(C)C (single isomer, unassigned) [4-36 Isomer 2]                    52
 3  CCOC(=O)N1CC2(CC(N3CCC4(CC3)OC(=O)N(CC)C4CC)C2)C1 (racemic) [2-2 racemic]                    71
 4  CCOC(=O)N1CCC2(CC(N3CCC4(CC3)OC(=O)N3CCCC34)C2)C1 (single isomer, unassigned) [4-44 Isomer 3]                     7
 5  CCOC(=O)N1CC2(CCC(N3CCC4(CC3)OC(=O)NC4(C)C)C2)C1 (single isomer, unassigned) [8-3 Isomer 2]                     2
 6  CCOC(=O)N1CCC2(CC(N3CCC4(CC3)OC(=O)N(CC3CC3)C4(C)C)C2)C1 (single isomer, unassigned) [4-39 Isomer 2]                    87
 7  CCCN1CC2(CCN(C3CC4(CCN(C(=O)OCC)C4)C3)CC2)OC1=O (single isomer, unassigned) [4-7 Isomer 2]                    41
 8  CCN1C(=O)OC2(CCN(C3CC4(CCN(C(=O)OC)C4)C3)CC2)C1(C)C (single isomer, unassigned) [4-34 Isomer 2]                     2
 9  CCOC(=O)N1CCC2(CC(N3CCC4(CC3)CNC(=O)C4)C2)C1 (single isomer, unassigned) [3-2 Isomer 2]                     3
10  CCOC(=O)N1CCC2(CC(N3CCC4(CC3)OC(=O)N(CCOC)C4(C)C)C2)C1 (single isomer, unassigned) [4-41 Isomer 2]                     5
11  CCOC(=O)N1CCC2(CC(N3CCC4(CC3)CC(=O)NC4CC)C2)C1 (single isomer, unassigned) [3-5 Isomer 2]                    16
12  CCCN1C(=O)CC2(CCN(C3CC4(CCN(C(=O)OCC)C4)C3)CC2)N1CC (single isomer, unassigned) [6-9 Isomer 2]                     1
13  CCOC(=O)N1CCC2(CC(N3CCC4(CC3)OC(=O)NC43CCCC3)C2)C1 (single isomer, unassigned) [4-31 Isomer 2]                     4
14  CCOC(=O)N1CCC2(CC(N3CCC4(CC3)OC(=O)N(OC)C4CC)C2)C1 (mixture of isomers) [4-48 mixture of diastereomers]                     3
15  COC(=O)N1CCC2(CC(N3CCC4(CC3)CNC(=O)C4)C2)C1 (single isomer, unassigned) [3-1 Isomer 2]                    14
16  CCOC(=O)N1CCC2(CC(N3CCC4(CNC(=O)C4)C(F)C3)C2)C1 (single isomer, unassigned) [3-9 Isomer 2]                     4
17  CCOC(=O)N1CCC2(CC(N3CCC4(CC3)OC(=O)N(CCF)C4(C)C)C2)C1 (single isomer, unassigned) [4-40 Isomer 2]                     4
18  CCOC(=O)N1CCC2(CC(N3CCC4(CC3)OC(=O)N(C3CC3)C4CC)C2)C1 (mixture of isomers) [4-47 mixture of diastereomers]                     7
19  CCOC(=O)N1CCC2(CC(N3CCC4(CC3)CC(=O)NN4Cc3ccccc3)C2)C1 (single isomer, unassigned) [6-6 Isomer 2]                     3
20  CCOC(=O)N1CCC2(CC(N3CCC4(CC3)CC(=O)NC4Cc3ccccc3)C2)C1 (single isomer, unassigned) [3-8 Isomer 2]                    33
21  CCOC(=O)N1CC2(CCC(N3CCC4(CC3)OC(=O)N(CC)C4(C)C)C2)C1 (racemic) [8-4 racemic]                     4
22  CCCN1C(=O)OC2(CCN(C3CC4(CCN(C(=O)OCC)C4)C3)CC2)C1CC (single isomer, unassigned) [4-23 Isomer 3]                     8
23  CCOC(=O)N1CCC2(CC(N3CCC4(CC3)CC(=O)N(CC)N4CC)C2)C1 (single isomer, unassigned) [6-8 Isomer 2]                    10
24  CCOC(=O)N1CC2(CCC(N3CCC4(CC3)OC(=O)N(CC)C4CC)C2)C1 (mixture of isomers) [8-2 mixture of diastereomers]                     1
25  CCOC(=O)N1CC2(CCC(N3CCC4(CC3)OC(=O)NC4CC)C2)C1 (mixture of isomers) [8-1 mixture of diastereomers]                     0

Reference for the values: patent US10167284B2
